B1: KCNA3 (parent)
chain: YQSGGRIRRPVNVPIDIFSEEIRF

Variants of: B1
TEST SUMMARY: protein stability index of a GFP-peptide fusion (GPS, HEK-293T) (PSI 1-6); higher = more stable;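 further: lentivirally expressed fusions sorted by FACS into six bins by GFP to DsRed ratio, PSI derived from sequencing read proportions per bin multiplied by bin number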
EXPERIMENTAL SETUP: c terminus: a fixed tail appended
OBSERVATION TYPE: protein stability index
Give bare numbers.

VARIANT DESCRIPTOR	protein stability index
G4E	2.73

Hi! Can you tell me protein stability index for each of these variants?
1. I7S
2. P10V
3. I7M
4. P14Q

result:
2.38
1.91
2.44
3.61

Return reported protein stability index values for all items listed beneath this line.
1. G5A
2. G5D

result:
[2.38, 2.02]

I would be grateful if you could provide protein stability index for each of the following entries.
1. Q2P
2. S3R
3. Y1S
4. R9I
5. N12T

result:
[2.07, 2.59, 3.58, 2.27, 2.17]

For each entry beneath this line, provide reported protein stability index.
1. Y1Q
2. Q2S
3. E21S
4. E20Q
5. S3W
6. E20M
7. E20Y

result:
1: 2.76; 2: 1.96; 3: 1.48; 4: 1.68; 5: 2.27; 6: 1.96; 7: 2.34

// for each variant below, give its protein stability index
1. N12R
2. P10T
3. E21D

result:
1: 1.28; 2: 2.83; 3: 1.56

The following variants each have a reported value; give each one's protein stability index.
1. I15Q
2. G4C

result:
1. 2.56
2. 1.93

Okay, here is my list. What is protein stability index for each of these?
1. D16Y
2. I7L
3. R23E
4. S19K
5. F24T
6. V11A
7. I15F
8. D16M

result:
[1.39, 1.69, 2.19, 1.54, 2.52, 2.49, 1.48, 1.73]

Please state, for each entry, its recorded protein stability index.
1. V13M
2. I7P
3. E21V
4. I7Y
5. P10C

result:
[2.25, 2.51, 1.97, 2.04, 2.03]
